src = paper PMC8809517

Assay system: T1, GFP-9S library array, motif 4 ND N98W;D124C (synthetic construct, N98W;D124C)
T1 chain: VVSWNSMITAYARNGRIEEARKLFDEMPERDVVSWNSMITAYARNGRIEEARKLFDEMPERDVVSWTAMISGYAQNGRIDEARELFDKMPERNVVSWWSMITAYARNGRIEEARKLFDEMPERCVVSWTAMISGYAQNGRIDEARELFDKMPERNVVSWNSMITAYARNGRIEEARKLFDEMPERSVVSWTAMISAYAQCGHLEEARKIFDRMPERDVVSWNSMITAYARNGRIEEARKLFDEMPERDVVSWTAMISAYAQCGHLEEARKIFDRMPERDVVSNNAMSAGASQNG
Test name: high-throughput RNA pulldown from lysate on Ni-NTA beads; HRP: 50 mM Tris pH 8, 150 mM NaCl, 1 mM beta-mercaptoethanol, 50 ug/ml BSA, 3 ug/ml yeast RNA, 0.5% heparin; ITC and FP: Tris pH 8, 200 mM KCl, 5% glycerol; MST: 50 mM Tris pH 8, 200 mM NaCl, 1 mM DTT, BSA, heparin, 0.05% Tween 20
Conditions: tags: N-terminal His-eGFP; label: 5' Cy5
Measured pKd by item
Scale: negative log10 of molar concentration, which is what pKd denotes.

- Binder: "AUUAGACGUGA (ssRNA) [Cy5-rpoA-G]"
  pKd: 7.11

stdin: What does the data say about its pKd? Entry: AUUACACGUGA (ssRNA) [Cy5-rpoA]
stdout: 7.10
